experiment: Selectivity index, ratio of CC50 for HeLa cells to IC50 for HRV2; assay type: functional
Assign logSI to each entry below.
API doc: respond with a numeric literal and nothing else, no unit.

Query block: Look up logSI: Cc1cc(CCCOc2c(C)cc(-c3ccc(F)cc3)cc2C)on1
Result block: 3.74

Query block: And the next one, Cc1cc(CCCOc2c(C)cc(-c3cccc4ccccc34)cc2C)on1 ?
Result block: 1.16

Query block: And the next one, C=Cc1ccc(-c2cc(C)c(OCCCc3cc(C)no3)c(C)c2)cc1 ?
Result block: 3.2

Query block: And the next one, Cc1cc(CCCOc2c(C)cc(-c3noc(C(F)(F)F)n3)cc2C)on1 [PLECONARIL] ?
Result block: 2.8

Query block: And the next one, Cc1cc(CCCOc2c(C)cc(-c3ccc(C=O)cc3)cc2C)on1 ?
Result block: 2.09

Query block: And the next one, Cc1cc(CCCOc2c(C)cc(-c3ccc(C(F)(F)F)cc3)cc2C)on1 ?
Result block: 2.05

Query block: And the next one, Cc1cc(CCCOc2c(C)cc(-c3cc(F)c(F)c(F)c3)cc2C)on1 ?
Result block: 3.34

Query block: And the next one, Cc1cc(CCCOc2c(C)cc(-c3ccc(F)c(C)c3)cc2C)on1 ?
Result block: 3.1

Query block: And the next one, Cc1cc(CCCOc2c(C)cc(-c3cc(C(F)(F)F)cc(C(F)(F)F)c3)cc2C)on1 ?
Result block: 0

Query block: And the next one, Cc1cc(CCCOc2c(C)cc(-c3ccccc3C)cc2C)on1 ?
Result block: 1.76

Query block: And the next one, Cc1cc(CCCOc2c(C)cc(-c3ccc(-c4ccccc4)cc3)cc2C)on1 ?
Result block: 0

Query block: And the next one, CC(=O)c1ccc(-c2cc(C)c(OCCCc3cc(C)no3)c(C)c2)cc1 ?
Result block: 2.33

Query block: And the next one, Cc1cc(CCCOc2c(C)cc(-c3ccc(OC(F)(F)F)cc3)cc2C)on1 ?
Result block: 1

Query block: And the next one, Cc1cc(CCCOc2c(C)cc(-c3ccc(C)c(C)c3)cc2C)on1 ?
Result block: 1.97

Query block: And the next one, Cc1cc(CCCOc2c(C)cc(-c3cccc([N+](=O)[O-])c3)cc2C)on1 ?
Result block: 2.25

Query block: And the next one, COc1cc(-c2cc(C)c(OCCCc3cc(C)no3)c(C)c2)cc(OC)c1OC ?
Result block: 1.53

Query block: And the next one, Cc1cc(CCCOc2c(C)cc(-c3cccc(F)c3)cc2C)on1 ?
Result block: 2.36

Query block: And the next one, Cc1cc(CCCOc2c(C)cc(-c3ccc(F)cc3F)cc2C)on1 ?
Result block: 3.2

Query block: And the next one, Cc1ccc(C)c(-c2cc(C)c(OCCCc3cc(C)no3)c(C)c2)c1 ?
Result block: 0.6

Query block: And the next one, Cc1cc(CCCOc2c(C)cc(-c3cccc(C(F)(F)F)c3)cc2C)on1 ?
Result block: 2.32

Query block: And the next one, Cc1cc(CCCOc2c(C)cc(-c3ccc(Br)cc3)cc2C)on1 ?
Result block: 0.85

* * *

test system: HeLa; assay: Cytotoxicity against human HeLa cells; format: cell-based; design: unit not given here
metric.name: logCC50
API doc: respond with a numeric literal and nothing else, no unit.

Query block: Look up logCC50: Cc1cc(CCCOc2c(C)cc(-c3ccc(C=O)cc3)cc2C)on1
Result block: 1

Query block: And the next one, Cc1cc(CCCOc2c(C)cc(-c3ccc(F)c(C)c3)cc2C)on1 ?
Result block: 1.28

Query block: And the next one, Cc1cc(CCCOc2c(C)cc(-c3cccc(F)c3)cc2C)on1 ?
Result block: 0.96

Query block: And the next one, Cc1cc(CCCOc2c(C)cc(-c3ccc(Br)cc3)cc2C)on1 ?
Result block: 0.68

Query block: And the next one, Cc1cc(CCCOc2c(C)cc(-c3ccc(F)cc3F)cc2C)on1 ?
Result block: 0.9

Query block: And the next one, Cc1cc(CCCOc2c(C)cc(-c3cccc(C(F)(F)F)c3)cc2C)on1 ?
Result block: 1.08

Query block: And the next one, C=Cc1ccc(-c2cc(C)c(OCCCc3cc(C)no3)c(C)c2)cc1 ?
Result block: 2.3

Query block: And the next one, Cc1ccc(C)c(-c2cc(C)c(OCCCc3cc(C)no3)c(C)c2)c1 ?
Result block: 1.7

Query block: And the next one, Cc1cc(CCCOc2c(C)cc(-c3cc(F)c(F)c(F)c3)cc2C)on1 ?
Result block: 1.88

Query block: And the next one, Cc1cc(CCCOc2c(C)cc(-c3ccc(-c4ccccc4)cc3)cc2C)on1 ?
Result block: 1.7

Query block: And the next one, Cc1cc(CCCOc2c(C)cc(-c3noc(C(F)(F)F)n3)cc2C)on1 ?
Result block: 1.1

Query block: And the next one, Cc1cc(CCCOc2c(C)cc(-c3cccc([N+](=O)[O-])c3)cc2C)on1 ?
Result block: 0.79

Query block: And the next one, CC(=O)c1ccc(-c2cc(C)c(OCCCc3cc(C)no3)c(C)c2)cc1 ?
Result block: 1.7

Query block: And the next one, Cc1cc(CCCOc2c(C)cc(-c3cc(C(F)(F)F)cc(C(F)(F)F)c3)cc2C)on1 ?
Result block: 1.7

Query block: And the next one, Cc1cc(CCCOc2c(C)cc(-c3ccc(OC(F)(F)F)cc3)cc2C)on1 ?
Result block: 1.03

Query block: And the next one, Cc1cc(CCCOc2c(C)cc(-c3ccc(C(F)(F)F)cc3)cc2C)on1 ?
Result block: 1.08

Query block: And the next one, COc1cc(-c2cc(C)c(OCCCc3cc(C)no3)c(C)c2)cc(OC)c1OC ?
Result block: 1

Query block: And the next one, Cc1cc(CCCOc2c(C)cc(-c3ccccc3C)cc2C)on1 ?
Result block: 0.66

Query block: And the next one, Cc1cc(CCCOc2c(C)cc(-c3cccc4ccccc34)cc2C)on1 ?
Result block: 0.96

Query block: And the next one, Cc1cc(CCCOc2c(C)cc(-c3ccc(F)cc3)cc2C)on1 ?
Result block: 1.7

Query block: And the next one, Cc1cc(CCCOc2c(C)cc(-c3ccc(C)c(C)c3)cc2C)on1 ?
Result block: 0.66

// data source = ChEMBL document CHEMBL1148737
